Molecular target: Matrilysin (Homo sapiens)
Sequence (P09237 whole entry): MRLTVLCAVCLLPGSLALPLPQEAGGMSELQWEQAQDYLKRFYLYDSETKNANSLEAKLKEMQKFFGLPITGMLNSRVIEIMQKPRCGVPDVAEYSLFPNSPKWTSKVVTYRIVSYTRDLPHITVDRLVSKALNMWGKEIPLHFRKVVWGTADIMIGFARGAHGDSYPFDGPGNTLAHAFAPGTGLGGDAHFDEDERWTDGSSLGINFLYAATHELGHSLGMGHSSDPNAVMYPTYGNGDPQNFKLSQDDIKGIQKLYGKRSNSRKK
Experiment: Inhibition of MMP7 in human U2OS cells by peptide microarray-based fluorescence assay
Assay type: cell-based
measurementLabel: IC50

[[record]]
compoundsmiles = "O=C(/C=C/c1ccc(O)cc1)c1ccc(O)cc1O"
measurement = "8 nM"

